Recorded Emax, one value per entry.
Molecular target: human GLP-1R (Homo sapiens (Human), UniProt P43220, L260F)
Sequence (P43220 24-463 L260F): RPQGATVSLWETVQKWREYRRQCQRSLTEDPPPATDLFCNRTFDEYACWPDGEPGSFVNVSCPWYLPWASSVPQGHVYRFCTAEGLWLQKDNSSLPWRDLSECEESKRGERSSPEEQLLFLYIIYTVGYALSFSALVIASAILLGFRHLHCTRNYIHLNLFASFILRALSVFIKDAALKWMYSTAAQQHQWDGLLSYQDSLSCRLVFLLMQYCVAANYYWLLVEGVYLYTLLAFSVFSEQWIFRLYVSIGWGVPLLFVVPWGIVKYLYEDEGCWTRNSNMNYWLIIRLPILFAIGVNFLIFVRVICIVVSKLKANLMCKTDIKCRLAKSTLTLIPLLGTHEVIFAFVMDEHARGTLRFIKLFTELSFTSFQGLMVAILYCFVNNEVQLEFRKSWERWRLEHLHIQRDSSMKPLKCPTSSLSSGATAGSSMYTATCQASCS
Test: CHO GLP-1R Clone C6—Assay 2: HTRF cAMP cell-based functional agonist assay (low GLP-1R density)
Conditions: CHO GLP-1R Clone C6; relative to saturating concentration of full agonist GLP-1 (1 μM); arithmetic mean; read-out: Assay 2 Emax (%)

Sample answers from the record:
- molecule: "Cn1cnnc1Cn1c(CN2CCC(c3cccc(OCc4ccc(C#N)cc4F)n3)CC2)nc2ccc(C(=O)O)cc21 [Example 1A-20]"
  observable: "Emax"
  assay.value: "90%"
- molecule: "COCCn1c(CN2CCC(c3cccc(OCc4cc(F)c(Cl)cc4F)n3)CC2)nc2ccc(C(=O)O)cc21 [Example 8A-03]"
  observable: "Emax"
  assay.value: "77%"
- molecule: "O=C(O)c1ccc2nc(CN3CCC(c4cccc(OCc5ccc(Cl)cc5F)n4)CC3)n(C[C@@H]3CCCO3)c2c1 [Example 10A-73]"
  observable: "Emax"
  assay.value: "82%"
- molecule: "O=C(O)c1ccc2nc(CN3CCC(c4cccc(OCc5ccc(Cl)cc5F)n4)CC3)n(Cc3cnco3)c2c1 [Example 10A-01]"
  observable: "Emax"
  assay.value: "84%"

Query: Tell me the measured Emax of Cn1nncc1Cn1c(CN2CCC(c3cccc(OCc4ccc(Cl)cc4F)n3)CC2)nc2ccc(C(=O)O)cc21 [Example 11A-72] , please.
Result: 77%

Query: Same again, this time with N#Cc1ccc(COc2cccc(C3CCN(Cc4nc5ccc(C(=O)O)cc5n4Cc4cnco4)CC3)n2)c(F)c1 [Example 10A-43]
Result: 79%

Query: Same again, this time with Cn1nccc1Cn1c(CN2CCC(c3cccc(OCc4ccc(Cl)cc4F)n3)CC2)nc2ccc(C(=O)O)cc21 [Example 11A-21]
Result: 83%

Query: Same again, this time with C[C@H]1CN(c2cccc(OCc3ccc(Cl)cc3F)n2)CCN1Cc1nc2ccc(C(=O)O)cc2n1Cc1cnnn1C [Example 10A-22]
Result: 79%

Query: Same again, this time with C[C@H]1CN(c2cccc(OCc3ccc(F)cc3F)n2)CCN1Cc1nc2ccc(C(=O)O)cc2n1C[C@@H]1CCO1 [Example 10A-58]
Result: 78%

Query: Same again, this time with C[C@H]1CN(c2ccc(F)c(OCc3ccc(F)cc3F)n2)CCN1Cc1nc2ccc(C(=O)O)cc2n1C[C@H]1CCO1 [Example 10A-57]
Result: 71%

Query: Same again, this time with O=C(O)c1ccc2nc(CN3CCN(c4cccc(OCc5ccc(Cl)cc5F)n4)CC3)n(C[C@@H]3CCO3)c2c1 [Example 10A-08]
Result: 94%

Query: Same again, this time with C[C@H]1CN(c2ccc(F)c(OCc3ccc(F)cc3F)n2)CCN1Cc1nc2ccc(C(=O)O)cc2n1C[C@@H]1CCO1 [Example 10A-56]
Result: 86%

Query: Same again, this time with N#Cc1ccc(COc2cccc(N3CCN(Cc4nc5ccc(C(=O)O)cc5n4Cc4cnco4)CC3)n2)c(F)c1 [Example 10A-61]
Result: 89%

Query: Same again, this time with COCCn1c(CN2CCC(c3cccc(OCc4ccc(Cl)cc4F)n3)CC2C)nc2ccc(C(=O)O)cc21 (single isomer, unassigned) [Example 13A-03]
Result: 80%

The measurements presented in this section are drawn from patent US10208019B2.
